The values you see were collected from paper doi:10.1101/2024.11.06.622366.

target: 11S, large fragment of a split luciferase
quantityKind: pKd
Value format note: pKd is -log10 of concentration (mol/L); just state the number.

Query :: Find the measured pKd of PINK1(ALALAL) DDL (from UniProt Q9BXM7 78-581) with 11S, large fragment of a split luciferase as test system.
Result :: 6.88
